Measured values drawn from patent US8178506B2 for this set.

# Tested on: PPARγ
# experiment-summary: PPARγ mRNA expression in adipocytes (real-time PCR)
# Format: cell-based, human
# condition: differentiating adipocytes transfected with oligomeric compound
# Method: Expression of the four hallmark genes, HSL, aP2, Glut4, and PPARγ, is also measured in adipocytes transfected with oligomeric compounds of the invention. Cells are lysed on day nine post-transfection and total RNA is harvested. The amount of total RNA in each sample is determined using a Ribogreen Assay (Invitrogen Life Technologies, Carlsbad, Calif.). […]
In the oligonucleotide strings, read from the 5' end, every base follows the letter of its sugar. An asterisk marks phosphorothioate; unmarked linkages are phosphodiester. Other units and linkages are bracketed, terminal groups are in braces. A string of capitals states the bases alone. e = 2'-O-(2-methoxyethyl) (MOE); [5mC] = 5-methylcytosine; d = 2'-deoxy (DNA)
Can you tell me PPAR gamma mRNA for the items I'm about to list?

Which PPAR gamma mRNA value is on record for 328759 (antisense eG*eA*eG*eG*eG*dA*dT*dT*dG*dT*dA*dT*dG*dA*dA*e[5mC]*eA*eT*e[5mC]*eT) [compound 328759] ? 95 percentage of untreated control (UTC)

Which PPAR gamma mRNA value is on record for 327909 (antisense e[5mC]*e[5mC]*e[5mC]*eA*eA*e[5mC]*eA*eA*e[5mC]*eA*eT*eG*eA*eA*eA*e[5mC]*eT*eA*e[5mC]*e[5mC]*eT*eA) [compound 327909] ? 96 percentage of untreated control (UTC)

Which PPAR gamma mRNA value is on record for 328362 (eT*eG*eT*eG*eT*dT*dT*dT*d[5mC]*dT*dG*dA*d[5mC]*dT*d[5mC]*eA*eG*eT*e[5mC]*eA) [compound 328362] ? 78 percentage of untreated control (UTC)

Which PPAR gamma mRNA value is on record for 328677 (eT*e[5mC]*e[5mC]*eT*eG*dG*dA*dT*dG*dA*dT*dA*dT*d[5mC]*dT*eA*e[5mC]*e[5mC]*eT*e[5mC]; antisense) [compound 328677] ? 89 percentage of untreated control (UTC)

Which PPAR gamma mRNA value is on record for 328434 (antisense e[5mC]*eG*e[5mC]*eA*eT*d[5mC]*dT*dT*dG*dA*d[5mC]*dT*dG*dT*dA*eG*e[5mC]*eA*eT*eG) [compound 328434] ? 79 percentage of untreated control (UTC)

Which PPAR gamma mRNA value is on record for 327953 (antisense eA*eG*eA*eA*eT*eT*eG*e[5mC]*eG*eT*eT*eT*eG*eG*eA*e[5mC]*eA*eA*eT*e[5mC]*eA) [compound 327953] ? 90 percentage of untreated control (UTC)

Which PPAR gamma mRNA value is on record for 327877 (antisense e[5mC]*eG*e[5mC]*e[5mC]*eA*eA*eT*eA*eT*eT*eT*eA*e[5mC]*eG*eT*eG*e[5mC]*eT*eG*e[5mC]*eT*eA) [compound 327877] ? 85 percentage of untreated control (UTC)

---

# Tested on: HeLa cells
# experiment-summary: Cell cycle assay in HeLa cells
# Assay type: cell-based, human
# condition: HeLa cells, 150 nM oligomeric compound, 24 hours, relative to untreated control (UTC = 100)
In the oligonucleotide strings, read from the 5' end, every base follows the letter of its sugar. An asterisk marks phosphorothioate; unmarked linkages are phosphodiester. Other units and linkages are bracketed, terminal groups are in braces. A string of capitals states the bases alone. e = 2'-O-(2-methoxyethyl) (MOE); [5mC] = 5-methylcytosine; d = 2'-deoxy (DNA)
Can you tell me % cells aneuploid for the items I'm about to list?
Please format your answer as a value with the unit trailing.

Return % cells aneuploid measured with HeLa cells given this substance: 338750 (antisense TCCGCGGGGGCGGGGAGGCT; all 2'-MOE, all phosphorothioate, methylation of C not given here) [compound 338750] 166%

Return % cells aneuploid measured with HeLa cells given this substance: 340350 (antisense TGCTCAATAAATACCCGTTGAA; all 2'-MOE, all phosphorothioate, methylation of C not given here) [compound 340350] 94%

Return % cells aneuploid measured with HeLa cells given this substance: 328724 (antisense eG*eA*e[5mC]*eA*eT*d[5mC]*dA*dT*dG*dT*dG*dA*dT*dT*dT*eG*e[5mC]*eT*e[5mC]*eA) [compound 328724] 197%
